Measurement notes: Toxicity in zebrafish assessed as mortality rate at 25 ug/ml
Design: species or system Danio rerio
Measurement conditions: in vivo, at 25 µg/mL, read-out: Activity
Test readout: mortality at 25 ug/ml (%)
Write the value in % as a bare number.

Qu. // mortality at 25 ug/ml lookup, key: Cc1ncsc1-c1ccc([C@H](C)NC(=O)[C@@H]2C[C@@H](O)CN2C(=O)[C@@H](NC(=O)CCCCc2cn(CCOCCOCCOCCOCCNC(=O)[C@H](C)CC(=O)C[C@@H](C)[C@H]3C[C@H](O)[C@@]4(C)C5=C(C(=O)C[C@]34C)[C@@]3(C)CCC(=O)C(C)(C)[C@@H]3C[C@@H]5O)nn2)C(C)(C)C)cc1
Ans. 0

---

Measurement notes: Cytotoxicity against mouse HT-22 cells assessed as cell viability at 100 uM incubated for 48 to 72 hrs by MTT assay
Type: toxicity, cell-based
Measurement conditions: time 48-72 hrs, read-out: Activity
Reported viability at 100 µM is given for each of the following compounds.
Units required after the number.

Known results for compounds:
| Compound | Endpoint result |
| --- | --- |
| Cc1ncsc1-c1ccc([C@H](C)NC(=O)[C@@H]2C[C@@H](O)CN2C(=O)[C@@H](NC(=O)CCCc2cn(CCCNC(=O)[C@H](C)CC(=O)C[C@@H](C)[C@H]3C[C@H](O)[C@@]4(C)C5=C(C(=O)C[C@]34C)[C@@]3(C)CCC(=O)C(C)(C)[C@@H]3C[C@@H]5O)nn2)C(C)(C)C)cc1 | 89.1% |
| Cc1ncsc1-c1ccc([C@H](C)NC(=O)[C@@H]2C[C@@H](O)CN2C(=O)[C@@H](NC(=O)CCCc2cn(CCOCCOCCNC(=O)[C@H](C)CC(=O)C[C@@H](C)[C@H]3C[C@H](O)[C@@]4(C)C5=C(C(=O)C[C@]34C)[C@@]3(C)CCC(=O)C(C)(C)[C@@H]3C[C@@H]5O)nn2)C(C)(C)C)cc1 | 101% |

Qu. // viability at 100 µM lookup, key: Cc1ncsc1-c1ccc([C@H](C)NC(=O)[C@@H]2C[C@@H](O)CN2C(=O)[C@@H](NC(=O)CCCc2cn(CCOCCOCCOCCNC(=O)[C@H](C)CC(=O)C[C@@H](C)[C@H]3C[C@H](O)[C@@]4(C)C5=C(C(=O)C[C@]34C)[C@@]3(C)CCC(=O)C(C)(C)[C@@H]3C[C@@H]5O)nn2)C(C)(C)C)cc1
Ans. 90.2%

Qu. Same question for Cc1ncsc1-c1ccc([C@H](C)NC(=O)[C@@H]2C[C@@H](O)CN2C(=O)[C@@H](NC(=O)CCCCc2cn(CCCNC(=O)[C@H](C)CC(=O)C[C@@H](C)[C@H]3C[C@H](O)[C@@]4(C)C5=C(C(=O)C[C@]34C)[C@@]3(C)CCC(=O)C(C)(C)[C@@H]3C[C@@H]5O)nn2)C(C)(C)C)cc1 please.
Ans. 102%

Qu. Same question for C[C@H](CC(=O)C[C@@H](C)[C@H]1C[C@H](O)[C@@]2(C)C3=C(C(=O)C[C@]12C)[C@@]1(C)CCC(=O)C(C)(C)[C@@H]1C[C@@H]3O)C(=O)NCc1cn(CCOCCOCCNc2cccc3c2C(=O)N(C2CCC(=O)NC2=O)C3=O)nn1 (some centres not stated) please.
Ans. 78.2%

Qu. Same question for Cc1ncsc1-c1ccc([C@H](C)NC(=O)[C@@H]2C[C@@H](O)CN2C(=O)[C@@H](NC(=O)CCCCc2cn(CCOCCOCCNC(=O)[C@H](C)CC(=O)C[C@@H](C)[C@H]3C[C@H](O)[C@@]4(C)C5=C(C(=O)C[C@]34C)[C@@]3(C)CCC(=O)C(C)(C)[C@@H]3C[C@@H]5O)nn2)C(C)(C)C)cc1 please.
Ans. 95.9%

Qu. Same question for C[C@H](CC(=O)C[C@@H](C)[C@H]1C[C@H](O)[C@@]2(C)C3=C(C(=O)C[C@]12C)[C@@]1(C)CCC(=O)C(C)(C)[C@@H]1C[C@@H]3O)C(=O)NCc1cn(CCOCCNc2cccc3c2C(=O)N(C2CCC(=O)NC2=O)C3=O)nn1 (some centres not stated) please.
Ans. 83.2%
